Every entry's value here was drawn from patent US8143307B2.

- system-name: Human NHE-1 (Homo sapiens)
- Sequence (P19634 whole entry): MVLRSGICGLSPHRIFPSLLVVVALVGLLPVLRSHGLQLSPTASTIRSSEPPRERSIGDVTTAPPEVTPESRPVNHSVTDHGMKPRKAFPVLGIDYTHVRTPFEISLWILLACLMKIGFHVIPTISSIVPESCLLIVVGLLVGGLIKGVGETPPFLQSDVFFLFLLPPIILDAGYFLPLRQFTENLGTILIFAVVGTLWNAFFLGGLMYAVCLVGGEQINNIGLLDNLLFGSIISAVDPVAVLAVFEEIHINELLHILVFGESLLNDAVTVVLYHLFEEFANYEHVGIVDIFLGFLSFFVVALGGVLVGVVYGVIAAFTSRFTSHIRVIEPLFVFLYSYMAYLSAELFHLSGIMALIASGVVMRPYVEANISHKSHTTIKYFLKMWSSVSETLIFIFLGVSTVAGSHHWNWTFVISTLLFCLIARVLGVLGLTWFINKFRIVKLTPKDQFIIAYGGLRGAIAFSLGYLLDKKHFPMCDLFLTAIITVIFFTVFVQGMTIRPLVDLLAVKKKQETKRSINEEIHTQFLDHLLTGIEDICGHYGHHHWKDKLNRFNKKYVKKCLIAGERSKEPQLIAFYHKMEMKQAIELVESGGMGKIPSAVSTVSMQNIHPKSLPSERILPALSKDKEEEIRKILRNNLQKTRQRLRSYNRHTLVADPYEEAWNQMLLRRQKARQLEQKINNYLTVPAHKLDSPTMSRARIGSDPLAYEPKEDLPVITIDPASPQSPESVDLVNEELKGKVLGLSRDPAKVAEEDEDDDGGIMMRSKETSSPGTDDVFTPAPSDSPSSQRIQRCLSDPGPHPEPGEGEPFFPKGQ
- assay-summary: Inhibitory effect on NHE-1 in PS120/NHE-1 cells (recovery from intracellular acidosis, BCECF fluorescence)
- measurement-context: human NHE-1 expressed PS120 cells; concentration at which recovery from intracellular acidosis was 50% inhibited
test-readout: IC50 (µM)
Please state the figure in µM; there is no need to write the unit.

Challenge: Name the reported IC50 value associated with the compound Cc1cccc(-c2cccc3sc(C(=O)N=C(N)N)cc23)c1 [Example 9, Methanesulfonate]
Response given: 3.37

Challenge: Name the reported IC50 value associated with the compound COc1cccc(-c2cccc3sc(C(=O)N=C(N)N)cc23)c1 [Example 12, Methanesulfonate]
Response given: 10.7

Challenge: Name the reported IC50 value associated with the compound NC(N)=NC(=O)c1cc2c(-c3cccc(F)c3F)cccc2s1 [Example 26, Methanesulfonate]
Response given: 8.93

Challenge: Name the reported IC50 value associated with the compound CCc1cccc2sc(C(=O)N=C(N)N)cc12.CS(=O)(=O)O [Example 37, Methanesulfonate]
Response given: 0.27

Challenge: Name the reported IC50 value associated with the compound CS(=O)(=O)O.Cc1ccc2sc(C(=O)N=C(N)N)cc2c1Br [Example 45, Methanesulfonate]
Response given: 0.29
